assay: Site specific gastrointestinal dosing (oral gavage, intraduodenal, intrajejunal) in rats, plasma AUC; assay type: in vivo, Wister-Hans rats; settings: Wister-Hans, rat, plasma, po, 20 mg/kg, oral (PO) gavage, 20 mg/kg, 10 mg/mL aqueous citrate solution, read-out: AUC, oral gavage
Readout Type: AUC

* CC(C)(C=C(C#N)C(=O)N1CCCC(n2nc(-c3ccc(Oc4ccccc4)cc3F)c3c(N)ncnc32)C1)N1CCN(C2COC2)CC1 (stereo not shown) [Compound (I)] | 668 to 1640 ng·h/mL

---

assay: Solubility of the salt in water at ambient temperature; format: physicochemical
Readout Type: solubility

* CC(C)(C=C(C#N)C(=O)N1CCC[C@@H](n2nc(-c3ccc(Oc4ccccc4)cc3F)c3c(N)ncnc32)C1)N1CCN(C2COC2)CC1 [hemi-sulfate] | > 100 mg/mL

---

test: Site specific gastrointestinal dosing (oral gavage, intraduodenal, intrajejunal) in rats, plasma AUC; format: in vivo, Wister-Hans rats; settings: Wister-Hans, rat, plasma, other: intrajejunal, 20 mg/kg, intrajejunum cannula, 20 mg/kg, aqueous citrate solution, read-out: AUC, intrajejunal (IJ) dosing
Readout Type: AUC (ng·h/mL)

• CC(C)(C=C(C#N)C(=O)N1CCCC(n2nc(-c3ccc(Oc4ccccc4)cc3F)c3c(N)ncnc32)C1)N1CCN(C2COC2)CC1 (stereo not shown) = 14400
